Test system: K4 kissing-loop RNA reporter;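 also: bound reporter read as fluorescence of individual clusters on recovered sequencing chips by microscopy, with normalized cluster intensities fitted with a binding model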
Assay: apparent KD of K4 kissing-loop reporter; higher = weaker reporter binding
Conditions: Eterna round: R107; input ligand: none
Parameter apparent KD of K4 kissing-loop reporter: see the listing below.
A number alone suffices; assume nM.

Answered cases to consult:
RESIDUE CODES	TARGET DESC	apparent KD of K4 kissing-loop reporter, nM
UUAGUUGAAAGUGAUACCAGACGAGUGAAGGGAAGAAAUUAAGUUGGAGUGAUGUUCCGCGUCCCUUGGCAGCACUUUGUAAUUU [Exclusion Theophylline B GF 22]	K4 kissing-loop RNA reporter	125
CCAGGAUGAUGAGGAUGAUGAAUUACUGAAGGAGCGCAUAUGGUUGCAGGUAGGUCGCGGUGAAUAAGUAUAGUGAUGUUAUGCC [SSArgA.X]	K4 kissing-loop RNA reporter	594
AAAAUAACCCAGUGAUGUUGGUCUCCAGAUACCAGCGACGAAAGUCGCCCUUGGCAGCUGUGGACGUACAAAAUAAGUACGUCCU	K4 kissing-loop RNA reporter	776
UAGGGUUGAAAAGGAUAUUUACCCUAUGUCAACGAGUGAUGUUCGUGGACAUUAGGCACAACUCGUAAAGAAGGUUUCCAGACUC [theeternabot_sameState_KL_FMN_B_39]	K4 kissing-loop RNA reporter	95
AGCAGUGAUGUUGCAUUUAUAAUGACCGAUACCAGUAUCGAUAGAUACCCUUGGCAGCGGAUUUCCGCAACGACUAGGAAACUAG [Ex Theophylline A K4 14]	K4 kissing-loop RNA reporter	355

--- query ---
Problem: Dear colleague, please send me the reported apparent KD of K4 kissing-loop reporter for UGAUAGGACAGAAGGAGCGGAAGUGAUGUUUCCAAAUGGAUAAGGUGUCAAAAGACACCCUUCCAGGUAGGUCGCUGUCCUAUCU [ArgBX 14 #Palindromic #SwitchBubble #StaticStem] when you can.
Solution: 130
